# PROTOCOL DESCRIPTION: in vivo
# Type: in vivo, mice
# CONDITION LABEL: male, CD-1, mouse, CSF, ip, 10 mg/kg, mice, IP 10 mg/kg, CSF, 60 min, mean of 3; read-out: CSF concentration C (mean)
RECORDED ENDPOINT: concentration at 60 min (ng/mL)

INSERT INTO assay_data (molecule, number) VALUES
  ('CCc1nc2c(C)nc(C)cc2n1-c1ccc(CCNC(=O)NS(=O)(=O)c2ccc(C)cc2)cc1 [Grapiprant, reference compound]', 0.35);

###

# PROTOCOL DESCRIPTION: in vivo
# Type: in vivo, mice
# CONDITION LABEL: male, CD-1, mouse, plasma, ip, 10 mg/kg, mice, IP 10 mg/kg, plasma, 480 min, mean of 3; read-out: Plasma concentration C (mean)
RECORDED ENDPOINT: concentration at 480 min (ng/mL)

INSERT INTO results (molecule, number) VALUES
  ('CCc1nc2c(C)nc(C)cc2n1-c1ccc(CCNC(=O)NS(=O)(=O)c2ccc(C)cc2)cc1 [Grapiprant, reference compound]', 0);

###

# PROTOCOL DESCRIPTION: in vivo
# Assay type: in vivo, mice
# CONDITION LABEL: male, CD-1, mouse, plasma, ip, 10 mg/kg, mice, IP 10 mg/kg, plasma, 480 min, mean of 3 animals; read-out: Plasma concentration C (mean)
RECORDED ENDPOINT: concentration at 480 min (ng/mL)

INSERT INTO results (compound, scale_unit, number) VALUES
  ('O=C([O-])C1CCC2(CC1)CC(Nc1ncnc3[nH]c4c(F)cccc4c13)C2.[Na+] (stereo not shown) [Compound 77]', 'ng/mL', 753);

###

# PROTOCOL DESCRIPTION: in vivo
# Type: in vivo, mice
# CONDITION LABEL: male, CD-1, mouse, plasma, iv, 10 mg/kg, mice, IV 10 mg/kg, plasma, 360 min, single animals; read-out: Plasma concentration, Final (individual mouse)
RECORDED ENDPOINT: concentration at 360 min (ng/mL)

INSERT INTO measurements (compound, scale_unit, number) VALUES
  ('O=C([O-])C1CCC2(CC1)CC(Nc1ncnc3[nH]c4c(F)cccc4c13)C2.[Na+] (stereo not shown)', 'ng/mL', 1260);

###

# PROTOCOL DESCRIPTION: in vivo
# Format: in vivo, mice
# CONDITION LABEL: male, CD-1, mouse, CSF, ip, 10 mg/kg, mice, IP 10 mg/kg, CSF, 30 min, mean; read-out: CSF concentrations of cmpd 7827_0016 in mice following IP (10 mg/kg) administration, C
RECORDED ENDPOINT: concentration at 30 min (ng/mL)

INSERT INTO measurements (compound, scale_unit, number) VALUES
  ('O=C(O)C1CCC2(CC1)CC(Nc1ncnc3[nH]c4c(F)cccc4c13)C2 (stereo not shown) [Compound 74]', 'ng/mL', 80.6);

###

# PROTOCOL DESCRIPTION: in vivo
# Assay type: in vivo, mice
# CONDITION LABEL: male, CD-1, mouse, brain, ip, 10 mg/kg, mice, IP 10 mg/kg, brain, 360 min, mean; read-out: Brain concentrations of cmpd 7827_0016 in mice following IP (10 mg/kg) administration, C
RECORDED ENDPOINT: concentration at 360 min (ng/g)

INSERT INTO results (compound, scale_unit, number) VALUES
  ('O=C(O)C1CCC2(CC1)CC(Nc1ncnc3[nH]c4c(F)cccc4c13)C2 (stereo not shown)', 'ng/g', 24.3);

###

# TARGET SYSTEM: EP4R (Homo sapiens, UniProt P35408)
# Construct: Tango fusion cassette (only 'tango' is printed); expressed in transfected cells; host or cells: HTLA cells (tTA-dependent luciferase reporter, β-arrestin2-TEV fusion)
# Sequence (P35408 whole entry, the tested form may be a part): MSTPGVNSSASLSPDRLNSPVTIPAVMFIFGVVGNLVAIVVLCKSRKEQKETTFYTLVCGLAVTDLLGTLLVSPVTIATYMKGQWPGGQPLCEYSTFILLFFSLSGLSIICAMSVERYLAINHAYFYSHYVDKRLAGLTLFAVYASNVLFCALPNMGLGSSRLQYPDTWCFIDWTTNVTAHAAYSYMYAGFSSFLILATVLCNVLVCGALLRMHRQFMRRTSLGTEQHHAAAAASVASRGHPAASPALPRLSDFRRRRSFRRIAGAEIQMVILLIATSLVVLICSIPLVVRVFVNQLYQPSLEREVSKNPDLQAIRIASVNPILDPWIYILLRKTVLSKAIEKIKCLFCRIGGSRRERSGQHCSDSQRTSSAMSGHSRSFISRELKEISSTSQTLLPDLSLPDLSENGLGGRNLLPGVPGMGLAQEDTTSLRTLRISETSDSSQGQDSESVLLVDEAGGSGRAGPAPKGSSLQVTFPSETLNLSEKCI
# PROTOCOL DESCRIPTION: PRESTO-Tango β-arrestin2 recruitment assay
# Type: cell-based
# CONDITION LABEL: PRESTO-Tango -logIC50
pIC50: −log10 of the molar value.
Mark Criterion not met for pIC50 values under 5, and Criterion met for everything at or above.

INSERT INTO assay_data (compound, class_assignment) VALUES
  ('N#Cc1ccc(OCc2cccc(C(=O)Nc3cccc(-c4nnn[nH]4)c3)c2)cc1', 'Criterion not met'),
  ('Cc1cc2c(NC3CC4(CCC(C(=O)O)CC4)C3)ncnc2s1 (centres unmarked)', 'Criterion not met'),
  ('O=C(NC1CCCC(C(=O)O)CC1)c1csc(C2CCCCC2)c1 (centres unmarked)', 'Criterion met');

###

# PROTOCOL DESCRIPTION: in vivo
# Assay type: in vivo, mice
# CONDITION LABEL: male, CD-1, mouse, CSF, ip, 10 mg/kg, mice, IP 10 mg/kg, CSF, 360 min, individual animals; read-out: CSF concentration, Final (individual sample)
RECORDED ENDPOINT: concentration at 360 min (ng/mL)

INSERT INTO measurements (molecule, number) VALUES
  ('CCc1nc2c(C)nc(C)cc2n1-c1ccc(CCNC(=O)NS(=O)(=O)c2ccc(C)cc2)cc1 [Grapiprant, reference compound]', 0);

###

# PROTOCOL DESCRIPTION: in vivo
# Type: in vivo, mice
# CONDITION LABEL: male, CD-1, mouse, CSF, ip, 10 mg/kg, mice, IP 10 mg/kg, CSF, 1440 min, mean of 3; read-out: CSF concentration C (mean)
RECORDED ENDPOINT: concentration at 1440 min (ng/mL)

INSERT INTO measurements (compound, recorded_endpoint, number) VALUES
  ('CCc1nc2c(C)nc(C)cc2n1-c1ccc(CCNC(=O)NS(=O)(=O)c2ccc(C)cc2)cc1 [Grapiprant, reference compound]', 'concentration at 1440 min', 0);

###

# PROTOCOL DESCRIPTION: in vivo
# Format: in vivo, mice
# CONDITION LABEL: male, CD-1, mouse, brain, ip, 10 mg/kg, mice, IP 10 mg/kg, brain, 60 min, mean; read-out: Brain concentrations of cmpd 7827_0016 in mice following IP (10 mg/kg) administration, C
RECORDED ENDPOINT: concentration at 60 min

INSERT INTO results (compound, recorded_endpoint, result) VALUES
  ('O=C(O)C1CCC2(CC1)CC(Nc1ncnc3[nH]c4c(F)cccc4c13)C2 (stereo not shown)', 'concentration at 60 min', '160 ng/g');

###

# TARGET SYSTEM: EP4R (Homo sapiens, UniProt P35408)
# Construct: Tango fusion cassette (only 'tango' is printed); expressed in transfected cells; host or cells: HTLA cells (tTA-dependent luciferase reporter, β-arrestin2-TEV fusion)
# PROTOCOL DESCRIPTION: PRESTO-Tango β-arrestin2 recruitment assay
# Type: cell-based
# CONDITION LABEL: PRESTO-Tango Ki* (nM), calculated using the Cheng Prusoff equation
RECORDED ENDPOINT: Ki (nM)

INSERT INTO measurements (compound, recorded_endpoint, number) VALUES
  ('CC1CCc2c(sc3ncnc(NC4CC5(CCC(C(=O)O)CC5)C4)c23)C1 (stereo not drawn)', 'Ki', 161),
  ('Cc1cc(C(=O)NC2CCCC(C(=O)O)CC2)c(C)n1-c1ccc(C(C)C)cc1 (stereo not drawn)', 'Ki', 229),
  ('O=C(N[C@@H]1CC[C@@H](C(=O)O)CCC1(F)F)c1nn(-c2ccc(F)cc2)c2c1CCC2', 'Ki', 434),
  ('O=C(NC1CCCC(C(=O)O)CC1)c1nn(-c2cccc(F)c2)c2c1CCC2 (stereo not drawn)', 'Ki', 293),
  ('Cc1csc2ncnc(NC3CC4(CCC(C(=O)O)CC4)C3)c12 (stereo not drawn)', 'Ki', 1590),
  ('Cc1nc(NC2CC3(CCC(C(=O)O)CC3)C2)c2cc(-c3ccccc3)sc2n1 (stereo not drawn)', 'Ki', 1470),
  ('O=C(O)C1CCC2(CC1)CC(Nc1ncnc3[nH]c4ncccc4c13)C2 (stereo not drawn)', 'Ki', 218),
  ('O=C(N[C@@H]1CC[C@@H](C(=O)O)CCC1(F)F)c1nn(-c2cccc(F)c2)c2c1CCC2', 'Ki', 202),
  ('O=C(NC1CCCC(C(=O)O)CC1)c1nn(-c2ccccc2)c2c1CCC2 (stereo not drawn)', 'Ki', 411),
  ('O=C(N[C@@H]1CC[C@@H](C(=O)O)CCC1(F)F)c1nn(-c2ccccc2)c2c1CCC2', 'Ki', 328),
  ('O=C(O)CC1CN(C(=O)[C@@H]2C[C@]23CCOc2ccccc23)c2ccccc21 (stereo partly drawn)', 'Ki', 1030),
  ('O=C(O)C1CCC2(CC1)CC(Nc1nc(C(F)(F)F)nc3ccccc13)C2 (stereo not drawn)', 'Ki', 774);
